Data provenance is paper PMC5081515.

Molecular target: UniProt:Q07010
Sequence (Q07010 whole entry): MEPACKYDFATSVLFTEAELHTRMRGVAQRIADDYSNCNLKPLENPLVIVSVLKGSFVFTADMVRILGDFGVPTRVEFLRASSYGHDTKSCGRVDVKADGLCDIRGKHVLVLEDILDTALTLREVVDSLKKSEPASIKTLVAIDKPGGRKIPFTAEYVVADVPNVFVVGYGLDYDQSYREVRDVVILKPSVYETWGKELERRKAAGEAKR
Assay: Inhibition studies, Ki determination
pKi: −log10 of the molar value.
Reported values of pKi for individual entries

| structureSmilesString | studyTarget | qualifierSign | pKi |
| --- | --- | --- | --- |
| O=c1[nH]cnc2c1ncn2CCCCCP(=O)(O)O | UniProt:Q07010 | = | 4.80 |
| Nc1nc2c(ncn2CCCCP(=O)(O)O)c(=O)[nH]1 | UniProt:Q07010 | = | 4.63 |
| Nc1nc2c(ncn2CCCCCCP(=O)(O)O)c(=O)[nH]1 | UniProt:Q07010 | = | 4.67 |
| O=c1[nH]cnc2c1ncn2CCCCCCP(=O)(O)O | UniProt:Q07010 | < | 4.00 |
| O=c1[nH]cnc2c1ncn2CCCP(=O)(O)O | UniProt:Q07010 | < | 4.00 |
| O=c1[nH]cnc2c1ncn2CCCCP(=O)(O)O | UniProt:Q07010 | = | 4.23 |
| Nc1nc2c(ncn2CCCCCP(=O)(O)O)c(=O)[nH]1 | UniProt:Q07010 | = | 5.64 |
